- target system: C3aR H418^7.36A (Homo sapiens, UniProt Q16581, H418A)
- Construct: expressed in transfected cells; host or cells: HEK293T
- method notes: GloSensor-based cAMP assay, C3aR mutant H418A
- Format: cell-based
- condition summary: IC50, H418^7.36A; dose-response plot
- Experimental: HEK293T cells were seeded on 6-well plates (NEST) and transfected with pGlosensor™-22F plasmids (Promega) and pcDNA3.1 plasmids encoding C3aR or its mutants an with N-terminal FLAG tag. […] After 90 min of incubation, basal luminescence signals were recorded. In total, 25 μl of test ligand with various concentrations and 1 μM Forskolin (Sigma-Aldrich) were treated to the cells and luminescence signals were measured by Tristar 2 LB 942 multimode reader (Berthold). […]
readout: IC50 (nM)
Lab book: enter the figure in nM, no units written.

Hello, I am looking for reported IC50 with C3aR H418^7.36A (Homo sapiens, UniProt Q16581, H418A) for Cc1cc(C(c2ccc(Cl)cc2)c2ccc(Cl)cc2)sc1C(=O)N[C@@H](CCCNC(=N)N)C(=O)O [JR14a, reference compound] . Could you help? 2.56

----------
- target system: C3aR S26^1.35A (Homo sapiens, UniProt Q16581, S26A)
- Construct: expressed in transfected cells; host or cells: HEK293T
- method notes: GloSensor-based cAMP assay, C3aR mutant S26A
- Format: cell-based
- condition summary: pIC50 ± SEM (Mean), S26^1.35A; mean of independent experiments
- Protocol: HEK293T cells were seeded on 6-well plates (NEST) and transfected with pGlosensor™-22F plasmids (Promega) and pcDNA3.1 plasmids encoding C3aR or its mutants an with N-terminal FLAG tag. […] After 90 min of incubation, basal luminescence signals were recorded. In total, 25 μl of test ligand with various concentrations and 1 μM Forskolin (Sigma-Aldrich) were treated to the cells and luminescence signals were measured by Tristar 2 LB 942 multimode reader (Berthold). […]
readout: IC50

Hello, I am looking for reported IC50 with C3aR S26^1.35A (Homo sapiens, UniProt Q16581, S26A) for Cc1cc(C(c2ccc(Cl)cc2)c2ccc(Cl)cc2)sc1C(=O)N[C@@H](CCCNC(=N)N)C(=O)O [JR14a, reference compound] . Could you help? 3.8 nM

----------
- target system: C3aR I102^3.32A (Homo sapiens, UniProt Q16581, I102A)
- Construct: expressed in transfected cells; host or cells: HEK293T
- Sequence (Q16581 1-482 I102A): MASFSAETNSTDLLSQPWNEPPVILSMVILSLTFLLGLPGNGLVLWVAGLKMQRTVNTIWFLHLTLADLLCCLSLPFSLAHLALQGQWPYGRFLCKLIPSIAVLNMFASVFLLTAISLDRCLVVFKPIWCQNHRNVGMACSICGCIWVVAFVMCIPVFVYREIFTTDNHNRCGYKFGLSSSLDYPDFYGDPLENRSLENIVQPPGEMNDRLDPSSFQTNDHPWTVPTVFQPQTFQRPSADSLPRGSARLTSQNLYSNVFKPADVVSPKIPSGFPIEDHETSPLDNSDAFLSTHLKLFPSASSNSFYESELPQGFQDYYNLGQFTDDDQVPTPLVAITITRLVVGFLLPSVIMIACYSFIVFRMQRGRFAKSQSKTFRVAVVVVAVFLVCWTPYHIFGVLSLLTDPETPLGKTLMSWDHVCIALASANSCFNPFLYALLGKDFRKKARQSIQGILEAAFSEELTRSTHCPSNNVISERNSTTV
- method notes: GloSensor-based cAMP assay, C3aR mutant I102A
- Assay type: cell-based
- condition summary: pIC50 ± SEM (Mean), I102^3.32A; mean of independent experiments
readout: IC50 (nM)
Lab book: enter the figure in nM, no units written.

What IC50 value was documented for this molecule, Cc1cc(C(c2ccc(Cl)cc2)c2ccc(Cl)cc2)sc1C(=O)N[C@@H](CCCNC(=N)N)C(=O)O [JR14a, reference compound] ? 6.92
